Kindly supply the reported half-life at 1 µM values for the records listed here.
# Assay comment: Metabolic stability in liver microsomes (intrinsic clearance)
# Assay type: in vitro ADME
# Test settings: mouse, microsomes, pH 7.4, Metabolic Stability Half life (mouse, min.)
Numbers only, in h.

CCc1cnc2nc(CC)c(C(=O)NCc3ccc(-c4nc5n(n4)CC[C@H](C(F)(F)F)C5)cc3)n2c1 : 0.4
CCc1nc2ncc(C)cn2c1C(=O)NCc1ccc(-c2nc3n(n2)CCC(C(F)(F)F)C3)c(F)c1 (stereo not shown) [Compound 22ab] : 1.78
CCc1cnc2nc(CC)c(C(=O)NCc3ccc(-c4nc5n(n4)CC[C@@H](C(F)(F)F)C5)cc3)n2c1 : 0.39

Continue with the next molecule.
Please indicate half-life at 1 µM recorded for CCc1nc2ncc(C)cn2c1C(=O)NCc1ccc(-c2nc3n(n2)CCC(OCCOC)C3)cc1 (stereo not shown) [Compound 30ab]
2.55

###

# Assay comment: HTChem stab assay (chemical stability in buffer pH2, pH4 and pH7 vs DMSO reference)
# Assay type: physicochemical
# Test settings: 72 h, 50 µM, pH 4
Reported metric: Chemical stability data, Buffer pH4 (%)
Give bare numbers, in %.

CCc1nc2ncc(OC)cn2c1C(=O)NCc1ccc(-c2nc3n(n2)CCC(C(F)(F)F)C3)cc1 (stereo not drawn) : 100
CCc1nc2ncc(C)cn2c1C(=O)NCc1ccc(-c2nc3n(n2)CCC(C(F)(F)F)C3)c(C)c1 (stereo not drawn) [Compound 23ab] : 100
CCc1nc2nc(F)ccn2c1C(=O)NCc1ccc(-c2cn3c(n2)CC(C)CC3)cc1 (stereo not drawn) [Compound 35ab] : 99
CCc1nc2nc(C)ccn2c1C(=O)NCc1ccc(-c2nc3n(n2)CCC(C(F)(F)F)C3)cc1 (stereo not drawn) [Compound 5ab] : 96
CCc1nc2ncc(C)cn2c1C(=O)NCc1ccc(-c2cn3c(n2)CC(C(F)(F)F)CC3)cc1 (single isomer, unassigned) : 100
CCc1nc2ncc(Cl)cn2c1C(=O)NCc1ccc(-c2nc3n(n2)CCC(C(F)(F)F)C3)cc1 (single isomer, unassigned) [Compound 10a] : 76
CCc1nc2nc(C)ccn2c1C(=O)NCc1ccc(-c2cn3c(n2)CC(C(F)(F)F)CC3)cc1 (stereo not drawn) [Compound 34ab] : 95
CCc1nc2ncc(C)cn2c1C(=O)NCc1ccc(-c2nc3n(n2)CCC(C(F)F)C3)cc1 (stereo not drawn) [Compound 25ab] : 100
CCc1nc2ncc(C)cn2c1C(=O)NCc1ccc(-c2nc3n(n2)CCC(C(F)(F)F)C3)c(F)c1 (stereo not drawn) [Compound 22ab] : 97
CCc1nc2ncc(C)cn2c1C(=O)NCc1ccc(-c2cc3n(n2)CCC(C(F)(F)F)C3)cc1 (stereo not drawn) [Compound 20ab] : 100

Respectfully, I request Chemical stability data, Buffer pH4 for each entry included below.
1. CCc1nc2ncc(CN)cn2c1C(=O)NCc1ccc(-c2nc3n(n2)CCC(C(F)(F)F)C3)cc1 (stereo not drawn) [Compound 16ab]
2. CCc1nc2ncc(C)cn2c1C(=O)NCc1ccc(-c2nc3n(n2)CCC(OC(F)(F)F)C3)cc1 (stereo not drawn) [Compound 33ab]
3. CCc1nc2ncc(C)cn2c1C(=O)NCc1ccc(-c2nc3n(n2)CCCC3)cc1 [Compound 31ab]
4. CCc1nc2ncc(C)cn2c1C(=O)NCc1ccc(-c2nn3c(c2C)CC(C(F)(F)F)CC3)cc1 (stereo not drawn) [Compound 21ab]
5. CCc1nc2ncc(C)cn2c1C(=O)NCc1ccc(-c2nc3n(n2)CCC(C(F)(F)F)C3)cc1 (single isomer, unassigned) [Compound 1a]

74
100
100
100
100
